Test: chemical genetic growth profiling, strain panel (AID 1159580);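 also: tested at 20 µM; growth read once vehicle control cultures reached saturation at 30 °C; 1 = growth at the plate median or of vehicle wells; lower values mean less growth of the strain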
Condition Label: S. cerevisiae deletion strains, growth OD, locus YLR039C, strain RIC1, hits give low values
Among all 5,500 compounds or so, about 2,000 (36%) were called active. Roughly 18% stayed inconclusive and do not appear here. The list shows a part of the results.
Classify: label 1 when normalized growth is strictly less than 0.9; label 0 when normalized growth is not.

Strictly below 0.9: is that where normalized growth of `c1ccc(CN(CC2=NCCN2)c2ccccc2)cc1` sits? label 0

// next record `O=C(O)CSCCOc1ccccc1` label 0

// next record `NC(N)=Nc1nc(CSCCC(N)=NS(N)(=O)=O)cs1` label 0

// next record `COc1ccc(-c2coc3c(OC)c(OC)cc(OC)c3c2=O)cc1` label 0

// next record `CC(=O)/C(=C\Nc1ncccn1)S(=O)(=O)c1ccc(Cl)cc1` label 0

// next record CCC(C(N)=O)c1ccccc1 (stereo not given) label 0

// next record COc1ccc2c(c1)C1(C)CCC(=O)CC1CC2 (stereo not given) label 0

// next record `COc1ccc(-c2coc3c(O)c(OC)ccc3c2=O)cc1` label 1

// next record CC(=O)O[C@]1(C(C)=O)CCC2C3C[C@H](C)C4=CC(=O)CC[C@]4(C)C3CC[C@@]21C (stereo not given in full) label 0

// next record `NC1=C(c2ccccc2)C(=O)NC1=O` label 0

// next record `O=c1[nH]c2cccnc2[nH]c1=O` label 0

// next record `OCCN(CCO)c1nc(N2CCCCC2)c2nc(N(CCO)CCO)nc(N3CCCCC3)c2n1` label 0

// next record `O=C(Nc1ccccc1C(=O)Nc1ccc(Br)cc1)c1ccccc1` label 0

// next record COc1cc2c(cc1OC)C(=O)C(CC1CCN(Cc3ccccc3)CC1)C2 (stereo not given) label 1

// next record COc1cccc2c1CCC1CC(=O)CCC21C (stereo not given) label 0

// next record `CCCCCCCc1c(O)c2ccccc2[nH]c1=O` label 0

// next record CC(=O)[C@H]1CCC2C3C[C@H](C)C4=CC(=O)CC[C@]4(C)C3[C@@H](O)C[C@@]21C (stereo not given in full) label 1

// next record CC(=O)O[C@]1(C(C)=O)CCC2C3C=C(C)C4=CC(=O)CCC4(C)C3CCC21C (stereo not given in full) label 1

// next record `c1ccc(CC2=NCCN2)cc1` label 0

// next record `NC/C=C/C(=O)O` label 0

// next record `NC(=O)N1c2ccccc2CC(=O)c2ccccc21` label 0

// next record `CC(=O)OCc1ccc(/C=C(\C#N)S(=O)(=O)c2ccc(Cl)cc2)o1` label 0

// next record CN1Cc2c(ccc3c2OCO3)C2C(O)Cc3cc4c(cc3C21)OCO4 (stereo not given) label 0

// next record `CC(C)(C)CC(C)(C)c1ccc(OCCOCC[N+](C)(C)Cc2ccccc2)cc1` label 1
